target: rat cKIT; test: SPR (Biacore) affinity measurement; type: binding; conditions: 25° C., 1:1 model
Sequence (as listed by the source): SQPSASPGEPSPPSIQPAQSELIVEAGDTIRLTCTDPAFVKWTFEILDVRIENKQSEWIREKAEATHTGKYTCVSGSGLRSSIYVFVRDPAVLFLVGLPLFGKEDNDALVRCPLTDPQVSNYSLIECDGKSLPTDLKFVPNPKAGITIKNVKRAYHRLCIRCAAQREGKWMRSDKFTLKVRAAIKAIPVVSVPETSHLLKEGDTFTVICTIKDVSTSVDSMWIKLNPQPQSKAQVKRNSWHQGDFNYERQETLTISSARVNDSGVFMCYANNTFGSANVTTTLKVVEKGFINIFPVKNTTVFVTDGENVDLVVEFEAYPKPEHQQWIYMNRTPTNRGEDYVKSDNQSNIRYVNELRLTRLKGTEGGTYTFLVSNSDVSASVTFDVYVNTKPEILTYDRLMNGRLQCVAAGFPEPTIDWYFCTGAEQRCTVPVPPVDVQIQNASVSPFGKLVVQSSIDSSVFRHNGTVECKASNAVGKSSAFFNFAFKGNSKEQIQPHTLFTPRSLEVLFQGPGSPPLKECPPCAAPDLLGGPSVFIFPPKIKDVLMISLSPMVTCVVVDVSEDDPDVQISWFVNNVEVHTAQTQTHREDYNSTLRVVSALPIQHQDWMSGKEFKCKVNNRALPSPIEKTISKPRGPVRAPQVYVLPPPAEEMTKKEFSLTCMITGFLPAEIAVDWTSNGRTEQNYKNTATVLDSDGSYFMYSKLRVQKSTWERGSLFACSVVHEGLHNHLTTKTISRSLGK
measured_property: Affinity to rat cKIT (nM)

- molecule: "NEG026: anti-cKIT antibody of Table 3, VH SEQ ID NO 46, VL SEQ ID NO 55 (antibody, listed as Homo sapiens, V domains shown) VH: EVQLVESGGGLVQPGGSLRLSCAASGFTFSDYYMAWVRQAPGKGLEWVANINQNTGSTYYVDSVQGRFTISRDNAKNSLYLQMNSLRAEDTAVYYCARGDYYGTTYWYFDVWGQGTTVTVSS VL: EIVMTQSPATLSLSPGERATLSCRASQDISNYLNWYQQKPGQAPRLLIYYTSRLQSGIPARFSGSGSGTDYTLTISSLEPEDFAVYYCQQGKKLWSFGGGTKVEIK"
  value_reported: "Not reactive"
- molecule: "NEG087: anti-cKIT antibody of Table 3, VH SEQ ID NO 118, VL SEQ ID NO 127 (antibody, listed as Homo sapiens, V domains shown) VH: EVQLVESGGGLVQPGGSLRLSCAASGFTFSDYYMAWVRQAPGKGLEWVASINQNTGSTYYLDSVRGRFTISRDNAKNSLYLQMNSLRAEDTAVYYCARGDYYGTTYWYFDVWGQGTTVTVSS VL: DIQMTQSPSSLSASVGDRVTITCRASQSISSYLNWYQQKPGKAPKLLIYYTSRLQSGVPSRFSGSGSGTDFTLTISSLQPEDFATYYCQQGRRLWSFGGGTKVEIK"
  value_reported: "Not reactive"
- molecule: "NEG086: anti-cKIT antibody of Table 3, VH SEQ ID NO 100, VL SEQ ID NO 109 (antibody, listed as Homo sapiens, V domains shown) VH: EVQLVESGGGLVQPGGSLRLSCAASGFTFSDYYMAWVRQAPGKGLEWVANINQIAGSTYYVDSVQGRFTISRDNAKNSLYLQMNSLRAEDTAVYYCARGDYYGTTYWYFDVWGQGTTVTVSS VL: DIQMTQSPSSLSASVGDRVTITCRASQSISSYLNWYQQKPGKAPKLLIYYTSRLQSGVPSRFSGSGSGTDFTLTISSLQPEDFATYYCQQGRRLWSFGGGTKVEIK"
  value_reported: "Not reactive"
